tested on: UO-31; assay: NCI tumour cell line growth inhibition, 48 h
Activity calls are given as the source filed them. Rule as the data show it: active = GI50 up to about 1.1 µM and inactive = higher.
measurementKind: GI50

Some molecules with known GI50 results, for comparison:
- molecule: "CC1=CC(=O)CCC2(C)C1CC[C@@H]2OC=O (stereo partly specified)"
  GI50: "> 100 µM (inactive)"
- molecule: "CCSc1cc(=O)n(C)c(=O)n1C"
  GI50: "> 100 µM (inactive)"
- molecule: "COc1ccc(-c2cc3ccccc3[nH]c2=O)cc1OC"
  GI50: "> 100 µM (inactive)"
- molecule: "N#CC1Cc2cc3c(cc21)OCO3 (stereo unspecified)"
  GI50: "> 100 µM (inactive)"
- molecule: "CC1=C[C@H]2C[C@@]3(C)O[C@@H]([C@]4(C)CC[C@H]([C@@H](C)C(=O)O)OO4)CC3C(C)(C)[C@H]2CC1 (stereo partly specified)"
  GI50: "1.2 µM (inactive)"

Lab note: next molecule to report on.
Would you kindly share the measured GI50 for `CC(=O)c1ccc(Nc2c3c(nc4ccccc24)CCCC3)cc1` ?
5.58 µM (inactive)

----------
system: OVCAR-5; assay: NCI tumour cell line growth inhibition, 48 h
Active and inactive are the calls of the source. Rule as the data show it: active = GI50 up to about 1.1 µM and inactive = higher.
measurementKind: GI50

Some compounds with known GI50 results, for comparison:
- compound: "CC1Oc2c(c(=O)oc3ccccc23)[C@@]1(C)CC1C[C@H](C)C(=O)O1 (stereo not given in full)"
  measurementKind: "GI50"
  experimentalValue: "83.8 µM (inactive)"
- compound: "C[S+](C)CC(=O)c1ccc2c(c1)Sc1ccccc1O2"
  measurementKind: "GI50"
  experimentalValue: "5.87 µM (inactive)"
- compound: "O=C(CN1CCNCCN(CC(=O)N2CCCCC2)CCNCC1)N1CCCCC1"
  measurementKind: "GI50"
  experimentalValue: "> 100 µM (inactive)"

Provide the documented GI50 with OVCAR-5 as the system for `CCn1c(=O)c2c(=O)[nH][nH]c2c2ccccc21`
> 100 µM (inactive)

Provide the documented GI50 with OVCAR-5 as the system for `O=C(c1ccccn1)C1(N2CCCCC2)CCCCC1`
> 100 µM (inactive)

----------
GI50 listing for selected compounds.
system: MDA-N; assay: NCI tumour cell line growth inhibition, 48 h
The source made the active and inactive calls. No stated cut-off is given here; in the data, active = GI50 up to about 1.1 µM and inactive = higher.

Some compounds with known GI50 results, for comparison:
- compound: "CC(=O)Nc1ccc2c(c1)nc1c3ccccc3ccn21"
  measuredTarget: "MDA-N"
  measurementKind: "GI50"
  experimentalValue: "> 100 µM (inactive)"
- compound: "CCn1c(-c2ccccc2)cs/c1=N\\C(P(=O)(O)O)P(=O)(O)O"
  measuredTarget: "MDA-N"
  measurementKind: "GI50"
  experimentalValue: "> 100 µM (inactive)"

Lab note: next compound to report on.
Would you kindly share the measured GI50 for CC1(C)NC2C(=O)c3c([nH]c4ccccc34)[C@]3(C)CCC1CC23 (stereo partly drawn) ?
> 100 µM (inactive)

----------
tested on: ACHN; assay: NCI tumour cell line growth inhibition, 48 h
The source made the active and inactive calls. No stated cut-off is given here; in the data, active = GI50 up to about 1.1 µM and inactive = higher.
GI50 listing for selected compounds.

- compound: "CCOC(=O)/C(O)=C/c1cc(OC)cc(=O)o1"
  GI50: "> 100 µM (inactive)"
- compound: "COc1ccc2cc(CNCCCCCCCCNCc3ccc4cc(OC)ccc4c3)ccc2c1"
  GI50: "5.94 µM (inactive)"

Would you kindly share the measured GI50 for `CCOC(=O)/C(C#N)=N\Nc1ccc(-n2c(C)nc3ccccc3c2=O)cc1` ?
> 100 µM (inactive)

Would you kindly share the measured GI50 for `COC(=O)C1=C(C)NC(C)=C(C(=O)OC)C1c1ccc(N=O)cc1` ?
13.8 µM (inactive)

Would you kindly share the measured GI50 for `CCCn1c2c(c3ccccc3c1=O)C(=O)c1ccccc1-2` ?
53.6 µM (inactive)

Would you kindly share the measured GI50 for O=C(COc1ccc(Cl)cc1)N1N=C(c2ccc(Cl)cc2)CC1(O)c1ccccc1 (stereo unspecified) ?
9.04 µM (inactive)
